- Test system: 883617-216-R-J1-PDC complex spheroids, growth, % test/control
- ASSAY_SUMMARY: Anticancer human tumor 883617-216-R-J1-PDC patient-derived bladder carcinoma cell line growth inhibition [AhR]
- RUN_CONDITIONS: curve of first compound; second compound 0.1 µM
ENDPOINT_LABEL: IC50

| COMPOUND | RESULT |
| --- | --- |
| COc1cccc2c1C(=O)c1c(O)c3c(c(O)c1C2=O)CC(O)(C(=O)CO)CC3OC1CC(N)C(O)C(C)O1 (stereo not drawn) + Cc1ccccc1N=Nc1ccc(NC(=O)c2ccnn2C)c(C)c1 | 284 nM |
| Cn1ncnc1C1c2n[nH]c(=O)c3cc(F)cc(c23)NC1c1ccc(F)cc1 (stereo not drawn) + Cc1cncc(-c2nc(NCCc3c[nH]c4ccccc34)c3ncn(C(C)C)c3n2)c1 | > 100 nM |
| Nc1ccn(C2OC(CO)C(O)C2(F)F)c(=O)n1 (stereo not drawn) + Cc1ccccc1N=Nc1ccc(NC(=O)c2ccnn2C)c(C)c1 | < 31.6 nM |
| Nc1ncn(C2CC(O)C(CO)S2)c(=O)n1 (stereo not drawn) + Cc1ccccc1N=Nc1ccc(NC(=O)c2ccnn2C)c(C)c1 | > 300 nM |
| COc1cc(Nc2ncc3c(n2)-c2ccc(Cl)cc2C(c2c(F)cccc2OC)=NC3)ccc1C(=O)O + CC(CO)NC(=O)c1cc(-c2ccc(Cl)cc2)nn(-c2cnn(C)c2)c1=O | > 10000 nM |
| CC(C)c1c(-c2ccccc2)nc2c(C#N)c[nH]n2c1=O + CC(CO)NC(=O)c1cc(-c2ccc(Cl)cc2)nn(-c2cnn(C)c2)c1=O | > 10000 nM |
| CCc1c2c(nc3ccc(O)cc13)-c1cc3c(c(=O)n1C2)COC(=O)[C@]3(O)CC + CC(CO)NC(=O)c1cc(-c2ccc(Cl)cc2)nn(-c2cnn(C)c2)c1=O | > 300 nM |
| O=C(c1cc(Cc2n[nH]c(=O)c3ccccc23)ccc1F)N1CCN(C(=O)C2CC2)CC1 + Cc1ccccc1N=Nc1ccc(NC(=O)c2ccnn2C)c(C)c1 | > 10000 nM |

---

- System: 883617-216-R-J1-PDC complex spheroids, growth, % test/control
- ASSAY_SUMMARY: Anticancer human tumor 883617-216-R-J1-PDC cell line growth inhibition [AhR];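 note: exposure lasted 7 days after dosing on day 3 of spheroid growth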
- RUN_CONDITIONS: second compound 0.316 µM; first compound 0.0316 µM; stronger effect = lower value
Sorting guide: entries reporting viability, T/C beneath 90% go in the satisfied pile, the rest go in the not satisfied pile.

| COMPOUND | CATEGORY_LABEL |
| --- | --- |
| Nc1ncn(C2CC(O)C(CO)O2)c(=O)n1 (stereo not given) + Cc1cncc(-c2nc(NCCc3c[nH]c4ccccc34)c3ncn(C(C)C)c3n2)c1 | satisfied |
| NS(=O)(=O)OCC1CC(n2ccc3c(NC4CCc5ccccc54)ncnc32)CC1O (stereo not given) + Cc1cncc(-c2nc(NCCc3c[nH]c4ccccc34)c3ncn(C(C)C)c3n2)c1 | not satisfied |
| COc1ccc([C@@H](O)c2cc(-c3ncnc4cc(N5CCOCC5)ccc34)c(F)cc2Cl)nn1 + Cc1cncc(-c2nc(NCCc3c[nH]c4ccccc34)c3ncn(C(C)C)c3n2)c1 | not satisfied |
| O=C(C=Cc1cccc(S(=O)(=O)Nc2ccccc2)c1)NO + CC(CO)NC(=O)c1cc(-c2ccc(Cl)cc2)nn(-c2cnn(C)c2)c1=O | not satisfied |
| O=C(c1cc(Cc2n[nH]c(=O)c3ccccc23)ccc1F)N1CCN(C(=O)C2CC2)CC1 + Cc1ccccc1N=Nc1ccc(NC(=O)c2ccnn2C)c(C)c1 | satisfied |
| COc1cc(Nc2ncc3c(n2)-c2ccc(Cl)cc2C(c2c(F)cccc2OC)=NC3)ccc1C(=O)O + CC(CO)NC(=O)c1cc(-c2ccc(Cl)cc2)nn(-c2cnn(C)c2)c1=O | not satisfied |
| CC(C)c1c(-c2ccccc2)nc2c(C#N)c[nH]n2c1=O + Cc1cncc(-c2nc(NCCc3c[nH]c4ccccc34)c3ncn(C(C)C)c3n2)c1 | not satisfied |
| Nc1ccn(C2OC(CO)C(O)C2(F)F)c(=O)n1 (stereo not given) + CC(CO)NC(=O)c1cc(-c2ccc(Cl)cc2)nn(-c2cnn(C)c2)c1=O | satisfied |
| NS(=O)(=O)OCC1CC(n2ccc3c(NC4CCc5ccccc54)ncnc32)CC1O (stereo not given) + CC(CO)NC(=O)c1cc(-c2ccc(Cl)cc2)nn(-c2cnn(C)c2)c1=O | satisfied |
| Nc1ccccc1NC(=O)c1ccc(CNC(=O)OCc2cccnc2)cc1 + CC(CO)NC(=O)c1cc(-c2ccc(Cl)cc2)nn(-c2cnn(C)c2)c1=O | satisfied |
| CC[C@@]1(O)C(=O)OCc2c1cc1n(c2=O)Cc2cc3c(CN(C)C)c(O)ccc3nc2-1 + Cc1ccccc1N=Nc1ccc(NC(=O)c2ccnn2C)c(C)c1 | satisfied |
| CC[C@@]1(O)C(=O)OCc2c1cc1n(c2=O)Cc2cc3c(CN(C)C)c(O)ccc3nc2-1 + CC(CO)NC(=O)c1cc(-c2ccc(Cl)cc2)nn(-c2cnn(C)c2)c1=O | not satisfied |
| CC(C)c1c(-c2ccccc2)nc2c(C#N)c[nH]n2c1=O + CC(CO)NC(=O)c1cc(-c2ccc(Cl)cc2)nn(-c2cnn(C)c2)c1=O | not satisfied |

---

- Test system: 883617-216-R-J1-PDC complex spheroids, growth, % test/control
- ASSAY_SUMMARY: Anticancer human tumor 883617-216-R-J1-PDC cell line growth inhibition [AhR];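 note: exposure lasted 7 days after dosing on day 3 of spheroid growth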
- RUN_CONDITIONS: second compound 10 µM; first compound 1 µM; stronger effect = lower value
Below is a list of entries, each paired with its recorded viability, T/C value.

| COMPOUND | viability, T/C [%] |
| --- | --- |
| Nc1ncn(C2CC(O)C(CO)O2)c(=O)n1 (configuration not stated) + Cc1cncc(-c2nc(NCCc3c[nH]c4ccccc34)c3ncn(C(C)C)c3n2)c1 | 55 |
| COc1cc(Nc2ncc3c(n2)-c2ccc(Cl)cc2C(c2c(F)cccc2OC)=NC3)ccc1C(=O)O + Cc1ccccc1N=Nc1ccc(NC(=O)c2ccnn2C)c(C)c1 | 61.3 |
| Nc1ncn(C2CC(O)C(CO)O2)c(=O)n1 (configuration not stated) + Cc1ccccc1N=Nc1ccc(NC(=O)c2ccnn2C)c(C)c1 | 77.9 |
| Nc1ncn(C2CC(O)C(CO)O2)c(=O)n1 (configuration not stated) + CC(CO)NC(=O)c1cc(-c2ccc(Cl)cc2)nn(-c2cnn(C)c2)c1=O | 81.2 |
| CC(C)c1c(-c2ccccc2)nc2c(C#N)c[nH]n2c1=O + Cc1ccccc1N=Nc1ccc(NC(=O)c2ccnn2C)c(C)c1 | 79.3 |
| O=C(c1cc(Cc2n[nH]c(=O)c3ccccc23)ccc1F)N1CCN(C(=O)C2CC2)CC1 + Cc1cncc(-c2nc(NCCc3c[nH]c4ccccc34)c3ncn(C(C)C)c3n2)c1 | 49.6 |
| Nc1ccn(C2OC(CO)C(O)C2(F)F)c(=O)n1 (configuration not stated) + CC(CO)NC(=O)c1cc(-c2ccc(Cl)cc2)nn(-c2cnn(C)c2)c1=O | 72.7 |

---

- Test system: 883617-216-R-J1-PDC complex spheroids, growth, % test/control
- ASSAY_SUMMARY: Anticancer human tumor 883617-216-R-J1-PDC cell line growth inhibition [AhR];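 note: exposure lasted 7 days after dosing on day 3 of spheroid growth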
- RUN_CONDITIONS: second compound 0.1 µM; first compound 3.16 µM; stronger effect = lower value
Consider the following partition of reported viability, T/C into named classes: low (below 50%), mid (50% to below 80%), high (80% or more)

| COMPOUND | TARGET_OR_TEST_SYSTEM | CATEGORY_LABEL |
| --- | --- | --- |
| Nc1ccn(C2OC(CO)C(O)C2(F)F)c(=O)n1 (centres undefined) + Cc1cncc(-c2nc(NCCc3c[nH]c4ccccc34)c3ncn(C(C)C)c3n2)c1 | 883617-216-R-J1-PDC complex spheroids, growth, % test/control | low |
| O=C(c1cc(Cc2n[nH]c(=O)c3ccccc23)ccc1F)N1CCN(C(=O)C2CC2)CC1 + Cc1cncc(-c2nc(NCCc3c[nH]c4ccccc34)c3ncn(C(C)C)c3n2)c1 | 883617-216-R-J1-PDC complex spheroids, growth, % test/control | mid |
| Nc1ccn(C2OC(CO)C(O)C2(F)F)c(=O)n1 (centres undefined) + CC(CO)NC(=O)c1cc(-c2ccc(Cl)cc2)nn(-c2cnn(C)c2)c1=O | 883617-216-R-J1-PDC complex spheroids, growth, % test/control | mid |
| O=C(c1cc(Cc2n[nH]c(=O)c3ccccc23)ccc1F)N1CCN(C(=O)C2CC2)CC1 + CC(CO)NC(=O)c1cc(-c2ccc(Cl)cc2)nn(-c2cnn(C)c2)c1=O | 883617-216-R-J1-PDC complex spheroids, growth, % test/control | high |
| CC1(C)CCC(CN2CCN(c3ccc(C(=O)NS(=O)(=O)c4ccc(NCC5CCOCC5)c([N+](=O)[O-])c4)c(Oc4cnc5[nH]ccc5c4)c3)CC2)=C(c2ccc(Cl)cc2)C1 + CC(CO)NC(=O)c1cc(-c2ccc(Cl)cc2)nn(-c2cnn(C)c2)c1=O | 883617-216-R-J1-PDC complex spheroids, growth, % test/control | high |
| NS(=O)(=O)OCC1CC(n2ccc3c(NC4CCc5ccccc54)ncnc32)CC1O (centres undefined) + Cc1ccccc1N=Nc1ccc(NC(=O)c2ccnn2C)c(C)c1 | 883617-216-R-J1-PDC complex spheroids, growth, % test/control | low |
| Nc1ccccc1NC(=O)c1ccc(CNC(=O)OCc2cccnc2)cc1 + CC(CO)NC(=O)c1cc(-c2ccc(Cl)cc2)nn(-c2cnn(C)c2)c1=O | 883617-216-R-J1-PDC complex spheroids, growth, % test/control | low |
| COc1cc(Nc2ncc3c(n2)-c2ccc(Cl)cc2C(c2c(F)cccc2OC)=NC3)ccc1C(=O)O + Cc1ccccc1N=Nc1ccc(NC(=O)c2ccnn2C)c(C)c1 | 883617-216-R-J1-PDC complex spheroids, growth, % test/control | mid |
| CC(C)c1c(-c2ccccc2)nc2c(C#N)c[nH]n2c1=O + CC(CO)NC(=O)c1cc(-c2ccc(Cl)cc2)nn(-c2cnn(C)c2)c1=O | 883617-216-R-J1-PDC complex spheroids, growth, % test/control | high |
| CC(C)c1c(-c2ccccc2)nc2c(C#N)c[nH]n2c1=O + Cc1ccccc1N=Nc1ccc(NC(=O)c2ccnn2C)c(C)c1 | 883617-216-R-J1-PDC complex spheroids, growth, % test/control | high |
| O=C(C=Cc1cccc(S(=O)(=O)Nc2ccccc2)c1)NO + Cc1ccccc1N=Nc1ccc(NC(=O)c2ccnn2C)c(C)c1 | 883617-216-R-J1-PDC complex spheroids, growth, % test/control | low |
| COc1cc(C2c3cc4c(cc3C(OC3OC5COC(C)OC5C(O)C3O)C3COC(=O)C23)OCO4)cc(OC)c1O (centres undefined) + Cc1cncc(-c2nc(NCCc3c[nH]c4ccccc34)c3ncn(C(C)C)c3n2)c1 | 883617-216-R-J1-PDC complex spheroids, growth, % test/control | mid |
